- Tested System: human PTH1 receptor (Homo sapiens, UniProt Q03431)
- Sequence (Q03431 27-593): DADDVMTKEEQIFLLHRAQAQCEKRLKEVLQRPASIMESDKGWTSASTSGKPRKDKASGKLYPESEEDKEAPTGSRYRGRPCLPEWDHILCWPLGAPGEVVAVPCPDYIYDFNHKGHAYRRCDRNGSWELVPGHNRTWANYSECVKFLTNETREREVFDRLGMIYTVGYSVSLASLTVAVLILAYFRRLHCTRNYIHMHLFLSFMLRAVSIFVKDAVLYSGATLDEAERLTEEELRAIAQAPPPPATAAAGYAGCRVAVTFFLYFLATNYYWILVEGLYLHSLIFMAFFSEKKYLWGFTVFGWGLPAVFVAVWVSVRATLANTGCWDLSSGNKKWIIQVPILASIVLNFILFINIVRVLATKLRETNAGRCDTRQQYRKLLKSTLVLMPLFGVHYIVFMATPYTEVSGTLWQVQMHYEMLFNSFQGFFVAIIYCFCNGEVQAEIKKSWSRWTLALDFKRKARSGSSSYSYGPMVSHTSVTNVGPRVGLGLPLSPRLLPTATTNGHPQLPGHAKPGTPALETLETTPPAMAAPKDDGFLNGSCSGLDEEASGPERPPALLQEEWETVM
- Protocol Text: In vitro cAMP signal activity in HKRK-B7 cells (LLC-PK1 cells overexpressing the human PTH1 receptor)
- Assay type: cell-based
- Measurement Context: HKRK-B7 cells; compound at 1×10^−3 M; cAMP produced as percentage of that produced by hPTH(1-34) at 100 nM
Quick list: cAMP production activity (%) per entry.
Just the number in %, nothing appended.

Examples from the recorded data:
{"Compound": "CN(C)C(=O)n1ccc2c(CCS(=O)(=O)N3CCC4(CC3)N=C(C3CCCCC3)NC4=O)cccc21", "cAMP production activity (%)": 76}
{"Compound": "CC(=O)Nc1ccc(CCS(=O)(=O)N2CCC3(CC2)N=C([C@H]2CC[C@H](OCCCF)CC2)NC3=O)c(C)c1", "cAMP production activity (%)": 61}
{"Compound": "CC(C)(C)NC(=O)N1CCCC(C2=NC3(CCN(S(=O)(=O)c4cccc(Cl)c4)CC3)C(=O)N2)C1 (stereo not shown)", "cAMP production activity (%)": 19}

[in] For Cc1cc2ccc1CCS(=O)(=O)N1CCC3(CC1)N=C(NC3=O)c1cc(cc(C(F)(F)F)c1)OCC/C=C/CCCCCN(C)C2=O , what is its reported cAMP production activity (%)?
[out] 57

[in] And then CCCCCc1ccc(C2=NC3(CCN([S@TB18](=O)(=O)/C=C/c4c(C)cc(N(C)C(N)=O)cc4C)CC3)C(=O)N2)cc1OC , what is it?
[out] 119

[in] Try this compound next: [2H]C([2H])([2H])N(C(=O)OC(C)(C)C)c1cc(C)c(/C=C/S(=O)(=O)N2CCC3(CC2)N=C(c2ccc(F)c(C(F)(F)F)c2)NC3=O)c(C)c1
[out] 26

[in] Here is the next compound: Cc1cc(C(=O)N2CCC(C)(O)CC2)cc(C)c1/C=C/S(=O)(=O)N1CCC2(CC1)N=C(c1ccc(COc3cccc(C(F)(F)F)c3)cc1)NC2=O
[out] 66

[in] Query Cc1cc(N2C(=O)CNC2=O)ccc1/C=C/S(=O)(=O)N1CCC2(CC1)N=C(C1CCC(C(C)C)CC1)NC2=O (stereo not shown) next
[out] 69

[in] Can you check Cc1cc(C(=O)N2CCC(O)(CF)CC2)cc(C)c1/C=C/S(=O)(=O)N1CCC2(CC1)N=C(c1ccc(F)c(C(F)F)c1)NC2=O next?
[out] 72

[in] Now give it for O=C1NC(c2cccc(OC(F)(F)F)c2)=NC12CCN(S(=O)(=O)/C=C/c1cccc3c1ccn3C[C@H](O)CO)CC2 too.
[out] 83
